- TGT: 4D11 IgG
- EXPERIMENT SUMMARY: SPR competition binding assay, mAb 4D11
- Parameters: species or system mouse
- RUN CONDITIONS: SPR competition assay (Biacore T200); 3D7 MSP2 immobilised on CM5 chip; eight three-fold dilutions of peptide from 10 µM with 50 nM 4D11 IgG; alanine scan of 16-residue MSP2_207–222; read-out: Kd against 4D11 IgG
Where a SMILES comes first, the peptide text is derived from it. Bridges are numbered along the chain shown (N, C = ends).
MEASURED QUANTITY: pKd
Reminder that pKd means the negative base-10 logarithm of the concentration expressed in mol/L.

For record CC(=O)N[C@@H](CO)C(=O)N[C@@H](CCC(N)=O)C(=O)N[C@@H](C)C(=O)N[C@@H](CCC(=O)O)C(=O)N[C@H]1CSSC[C@@H](C(=O)NCC(=O)N[C@@H](C)C(=O)N[C@@H](C)C(N)=O)NC(=O)[C@H](CC(N)=O)NC(=O)[C@H](CCC(=O)O)NC(=O)[C@H](CCCCN)NC(=O)[C@H](CC(N)=O)NC(=O)CNC(=O)[C@H](CC(=O)O)NC(=O)[C@H]([C@@H](C)O)NC1=O [Peptide K209A] (Ac-SQAECTDGNKENCGAA-NH2; disulfide 5-13) the listed pKd is 6.52
